assay: chemical genetic growth profiling, strain panel (AID 1159580);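 note: tested at 20 µM; growth read once vehicle control cultures reached saturation at 30 °C; lower values mean less growth of the strain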; details: S. cerevisiae deletion strains, growth OD, locus YKL190W, strain CNB1
Among all 5,500 compounds or so, about 2,000 (36%) were called active. Not shown: some 18% with an inconclusive outcome. Cut-off read from the data, not from the text of the source: active = normalized growth mostly below about 0.91 (no sharp cut-off); inconclusive = no clear call, values can overlap the other calls; inactive = mostly above about 0.92. Some of the results follow.
Would you mind answering with one of these outcomes? active, inactive

These solved cases illustrate the format of a correct answer.
# Compound, Group
records = [
    ("COc1cc([C@@H]2c3cc4c(cc3C(O[C@@H]3O[C@@H]5CO[C@@H](c6cccs6)OC5[C@H](O)[C@H]3O)C3COC(=O)[C@@H]32)OCO4)cc(OC)c1O (some centres not stated)", "inactive"),
    ("COc1c(O)cc2c(-c3ccccc3)cc(=O)oc2c1OC", "inactive"),
    ("CCCN1C[C@H](CSC)C[C@@H]2c3cccc4[nH]cc(c34)C[C@H]21", "inactive"),
    ("Cc1onc(-c2c(Cl)cccc2Cl)c1C(=O)N1CCN(c2ncccc2C(F)(F)F)CC1", "inactive"),
    ("CCN(CC)CCNc1ccc(CO)c2sc3ccccc3c(=O)c12", "inactive"),
]

QUERY: Test call, this compound: "Cc1cc(=O)c2c(O)c3c(cc2o1)OC(C)(C)CC3"
RESULT: inactive

QUERY: Also, "CC(C)[C@]12O[C@H]1[C@@H]1O[C@@]13[C@@]1(C)CCC4=C(COC4=O)[C@@H]1C[C@@H]1O[C@@]13C2=O" please.
RESULT: inactive

QUERY: Also, "CC(C)=CCc1c2c(c(O)c3c(=O)c(O)c(-c4ccccc4)oc13)C=CC(C)(C)O2" please.
RESULT: active

QUERY: Also, "CN(C)CCC=C1c2ccccc2CCc2ccccc21" please.
RESULT: inactive

QUERY: Also, "CC1=CCc2c(cc3oc(C)cc(=O)c3c2O)OC1" please.
RESULT: active

QUERY: Also, "N/C(=N/OS(=O)(=O)c1ccc(Cl)cc1)c1ccc(C(F)(F)F)cc1" please.
RESULT: inactive

QUERY: Also, "CNCCC=C1c2ccccc2CCc2ccccc21" please.
RESULT: inactive

QUERY: Also, "CC(=O)Nc1cccc(O)c1" please.
RESULT: inactive

----------
assay: chemical genetic growth profiling, strain panel (AID 1159580);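 note: tested at 20 µM; growth read once vehicle control cultures reached saturation at 30 °C; lower values mean less growth of the strain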; details: S. cerevisiae deletion strains, growth OD, locus YDL185W, strain tfp1
The whole screen tested about 5,500 compounds, of which about 2,000 (36%) were called active. Roughly 18% stayed inconclusive and do not appear here. No stated cut-off is given here; in the data, active means normalized growth mostly below about 0.91 (no sharp cut-off); inconclusive means no clear call, values can overlap the other calls; inactive means mostly above about 0.92. Some of the results follow.
Would you mind answering with one of these outcomes? yes = active, no = inactive

These solved cases illustrate the format of a correct answer.
# Compound, Group
measured = [
    ("COc1c(O)cccc1O", "no"),
    ("CC(=O)O.CC(=O)O.[Cd]", "yes"),
    ("CCC(/C=C/[C@@H](C)[C@H]1CCC2C3CC=C4C[C@@H](O)CC[C@]4(C)C3CC[C@@]21C)C(C)C (some centres not stated)", "no"),
    ("CC(=O)[C@H]1CCC2C3CC=C4C[C@@H](O)CC[C@]4(C)C3CC[C@@]21C (some centres not stated)", "no"),
    ("CC(=O)O[C@H]1C[C@H](O[C@H]2[C@@H](O)C[C@H](O[C@H]3[C@@H](O)C[C@H](O[C@H]4CC[C@@]5(C)C(CCC6C5C[C@@H](O)[C@]5(C)[C@@H](C7=CC(=O)OC7)CC[C@]65O)C4)O[C@@H]3C)O[C@@H]2C)O[C@H](C)[C@H]1O[C@@H]1O[C@H](CO)[C@@H](O)[C@H](O)[C@H]1O (some centres not stated)", "no"),
]

QUERY: Test call, this compound: C[C@@H]1CC[C@@]2(OC1)OC1C(O)C3C4CC[C@H]5C[C@H](O[C@@H]6O[C@H](CO)[C@H](O[C@@H]7O[C@H](CO)[C@@H](O)[C@H](O[C@@H]8OC[C@@H](O)[C@H](O)[C@H]8O)[C@H]7O[C@@H]7O[C@H](CO)[C@H](O)[C@H](O[C@@H]8O[C@H](CO)[C@@H](O)[C@H](O)[C@H]8O)[C@H]7O)[C@H](O)[C@H]6O)[C@H](O)C[C@]5(C)C4CC[C@]3(C)C1[C@@H]2C (some centres not stated)
RESULT: yes

QUERY: Also, Cn1nnnc1SCC1=C(C(=O)O)N2C(=O)C(NC(=O)C(O)c3ccccc3)C2SC1 (configuration not stated) please.
RESULT: no
